Listed here: items and their measured Ki.
Molecular target: Adenosine receptor A2b (Homo sapiens, UniProt P29275)
Sequence (P29275 whole entry): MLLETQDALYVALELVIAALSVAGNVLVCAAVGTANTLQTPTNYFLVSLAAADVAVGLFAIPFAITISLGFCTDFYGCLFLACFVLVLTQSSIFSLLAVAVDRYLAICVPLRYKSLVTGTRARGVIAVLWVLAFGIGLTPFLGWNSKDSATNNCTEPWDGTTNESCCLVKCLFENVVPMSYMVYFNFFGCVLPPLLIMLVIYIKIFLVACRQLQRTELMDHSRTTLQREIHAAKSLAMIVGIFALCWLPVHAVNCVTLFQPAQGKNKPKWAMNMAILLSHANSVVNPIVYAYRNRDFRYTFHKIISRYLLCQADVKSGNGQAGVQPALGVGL
Assay: Displacement of [3H]PSB-603 from human adenosine A2B receptor expressed in CHO cell membrane and measured after 0.5 hrs by radioligand displacement assay
Type: cell membranes
Return type: number; implicit unit nM.

CCCn1c(=O)c2[nH]c(-c3ccc(N=C=S)cc3)nc2n(CCC)c1=O	24

Prompt: Let me know recorded Ki for "CCCn1c(=O)c2[nH]c(-c3cccc(OS(=O)(=O)F)c3)nc2n(CCC)c1=O" , thanks.
Completion: 562

Prompt: Let me know recorded Ki for "CCCn1c(=O)[nH]c2nc(-c3ccc(N=C=S)cc3)[nH]c2c1=O" , thanks.
Completion: 2.14

Prompt: Let me know recorded Ki for "CCCn1c(=O)c2[nH]c(-c3ccc(OS(=O)(=O)F)cc3)nc2n(CCC)c1=O" , thanks.
Completion: 49

Prompt: Let me know recorded Ki for "CCCn1c(=O)c2[nH]c(-c3ccc(S(=O)(=O)F)cc3)nc2n(CCC)c1=O" , thanks.
Completion: 60.3

Prompt: Let me know recorded Ki for "CCCn1c(=O)[nH]c2nc(-c3cccc(OS(=O)(=O)F)c3)[nH]c2c1=O" , thanks.
Completion: 141

Prompt: Let me know recorded Ki for "CCCn1c(=O)c2[nH]c(-c3cccc(N=C=S)c3)nc2n(CCC)c1=O" , thanks.
Completion: 617

Prompt: Let me know recorded Ki for "CCCn1c(=O)[nH]c2nc(-c3cccc(S(=O)(=O)F)c3)[nH]c2c1=O" , thanks.
Completion: 132

Prompt: Let me know recorded Ki for "CCCn1c(=O)[nH]c2nc(-c3ccc(S(=O)(=O)F)cc3)[nH]c2c1=O" , thanks.
Completion: 7.94

Prompt: Let me know recorded Ki for "CCCn1c(=O)c2[nH]c(-c3cccc(S(=O)(=O)F)c3)nc2n(CCC)c1=O" , thanks.
Completion: 955

Prompt: Let me know recorded Ki for "CCCn1c(=O)[nH]c2nc(-c3ccc(OS(=O)(=O)F)cc3)[nH]c2c1=O" , thanks.
Completion: 11.7

Prompt: Let me know recorded Ki for "CCCn1c(=O)[nH]c2nc(-c3cccc(N=C=S)c3)[nH]c2c1=O" , thanks.
Completion: 110

---

Target: Adenosine receptor A2b (Homo sapiens) (UniProt P29275)
Sequence (whole entry): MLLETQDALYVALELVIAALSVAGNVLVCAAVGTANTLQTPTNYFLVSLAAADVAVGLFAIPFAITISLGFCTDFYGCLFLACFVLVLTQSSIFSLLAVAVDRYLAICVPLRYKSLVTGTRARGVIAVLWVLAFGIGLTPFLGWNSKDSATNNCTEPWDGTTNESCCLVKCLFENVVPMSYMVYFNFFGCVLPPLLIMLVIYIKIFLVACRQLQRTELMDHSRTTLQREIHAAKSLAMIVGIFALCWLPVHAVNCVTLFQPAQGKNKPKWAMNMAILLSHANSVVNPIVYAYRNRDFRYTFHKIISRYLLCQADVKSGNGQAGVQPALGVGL
Experiment: Ratio of Ki for displacement of [3H]PSB-603 from human adenosine A2B receptor expressed in CHO cell membrane to Ki for displacement of [3H]PSB-603 from human adenosine A2B receptor expressed in CHO cell membrane preincubated for 4hrs
Assay type: cell membranes
Record yes whenever Ratio Ki is at 10 or higher; record no when lower.

CCCn1c(=O)[nH]c2nc(-c3ccc(OS(=O)(=O)F)cc3)[nH]c2c1=O	no

Prompt: Reported Ratio Ki reaches at least 10 for "CCCn1c(=O)c2[nH]c(-c3ccc(N=C=S)cc3)nc2n(CCC)c1=O" ?
Completion: no

Prompt: Reported Ratio Ki reaches at least 10 for "CCCn1c(=O)[nH]c2nc(-c3cccc(OS(=O)(=O)F)c3)[nH]c2c1=O" ?
Completion: no

Prompt: Reported Ratio Ki reaches at least 10 for "CCCn1c(=O)[nH]c2nc(-c3ccc(N=C=S)cc3)[nH]c2c1=O" ?
Completion: no

Prompt: Reported Ratio Ki reaches at least 10 for "CCCn1c(=O)c2[nH]c(-c3cccc(S(=O)(=O)F)c3)nc2n(CCC)c1=O" ?
Completion: no

Prompt: Reported Ratio Ki reaches at least 10 for "CCCn1c(=O)c2[nH]c(-c3ccc(OS(=O)(=O)F)cc3)nc2n(CCC)c1=O" ?
Completion: no

Prompt: Reported Ratio Ki reaches at least 10 for "CCCn1c(=O)[nH]c2nc(-c3cccc(N=C=S)c3)[nH]c2c1=O" ?
Completion: yes

Prompt: Reported Ratio Ki reaches at least 10 for "CCCn1c(=O)[nH]c2nc(-c3ccc(S(=O)(=O)F)cc3)[nH]c2c1=O" ?
Completion: yes

Prompt: Reported Ratio Ki reaches at least 10 for "CCCn1c(=O)c2[nH]c(-c3cccc(N=C=S)c3)nc2n(CCC)c1=O" ?
Completion: yes

Prompt: Reported Ratio Ki reaches at least 10 for "CCCn1c(=O)c2[nH]c(-c3cccc(OS(=O)(=O)F)c3)nc2n(CCC)c1=O" ?
Completion: no

Prompt: Reported Ratio Ki reaches at least 10 for "CCCn1c(=O)c2[nH]c(-c3ccc(S(=O)(=O)F)cc3)nc2n(CCC)c1=O" ?
Completion: yes
